subject of test: human alpha 7-wt nAChR (Homo sapiens, UniProt P36544)
Construct: expressed in transfected cells
Sequence (P36544 23-502): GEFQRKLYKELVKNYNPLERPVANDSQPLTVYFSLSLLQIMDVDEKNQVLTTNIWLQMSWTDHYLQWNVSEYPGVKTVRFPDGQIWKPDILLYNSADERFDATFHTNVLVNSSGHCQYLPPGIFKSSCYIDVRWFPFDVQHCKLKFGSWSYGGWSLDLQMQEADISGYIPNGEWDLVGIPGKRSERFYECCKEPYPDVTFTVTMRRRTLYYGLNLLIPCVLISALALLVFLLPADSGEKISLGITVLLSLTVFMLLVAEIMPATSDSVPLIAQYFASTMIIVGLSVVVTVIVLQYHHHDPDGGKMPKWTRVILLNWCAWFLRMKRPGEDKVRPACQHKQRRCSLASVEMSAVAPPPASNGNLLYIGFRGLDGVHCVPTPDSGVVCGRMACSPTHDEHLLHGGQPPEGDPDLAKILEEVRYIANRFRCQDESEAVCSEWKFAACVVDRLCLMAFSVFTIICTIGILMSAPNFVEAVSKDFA
assay details: Ca2+ flux imaging (FDSS) (Protocol B)
Type: cell-based
run parameters: efficacy of 100 μM choline defined as 100% in the absence of a PAM; read-out: a7-PAM-G_[33]_Eff_Curve_FI % Efficacy
assay readout: Emax (%)

Record Cc1cc(-c2sc(N3C[C@@H](C)O[C@@H](C)C3)nc2CNC(=O)c2cc(C)sc2C)cc(C)n1 . Reported Emax: 842

Record Cc1cc(-c2sc(N3C[C@@H](C)O[C@@H](C)C3)nc2CNC(=O)c2cccc(Cl)c2)ccn1 . Reported Emax: 445

Record O=C(CC1CC1)NCc1nc(N2CCOCC2)sc1-c1ccncc1 . Reported Emax: 525

Record Cc1cc(-c2sc(N3C[C@@H](C)O[C@@H](C)C3)nc2CNC(=O)C2C(C)(C)C2(C)C)cc(C)n1 . Reported Emax: 663

Record CC(=O)NCc1nc(N2C[C@@H](C)O[C@@H](C)C2)sc1-c1cc(C)nc(C)c1 . Reported Emax: 495

Record Cc1ccc(-c2sc(N3C[C@@H](C)O[C@@H](C)C3)nc2CNC(=O)c2ccc(F)cc2)cn1 . Reported Emax: 655

Record Cc1cc(-c2sc(N3CCOC[C@@H]3C)nc2CNC(=O)c2conc2C)cc(C)n1 . Reported Emax: 835

Record Cc1cc(-c2sc(N3CCOC(C)(C)C3)nc2CNC(=O)c2cc(C)on2)cc(C)n1 . Reported Emax: 991

[I] Cc1cc(-c2sc(N3C[C@@H](C)O[C@@H](C)C3)nc2CNC(=O)c2ccc(F)cc2C)cc(C)n1
[II] Cc1cc(-c2sc(N3CC4CCC(C3)O4)nc2CNC(=O)c2ccc(F)cc2C)cc(C)n1
Task: Endpoint returns whichever of I and II has the numerically higher Emax. Output the label that corresponds to your choice.
Output: II

###

subject of test: human alpha 7-wt nAChR (Homo sapiens, UniProt P36544)
Construct: expressed in transfected cells
assay details: Ca2+ flux imaging (FDSS) (Protocol B)
Type: cell-based
run parameters: potentiation of 100 μM choline; compounds 0.01 μM to 30 μM; read-out: a7-PAM-G_[33]_pEC50 pEC50 (converted)
assay readout: EC50 (nM)

Use these answered entries as a reference point.
Record Cc1cc(-c2sc(N3CC(C)OC(C(F)(F)F)C3)nc2CNC(=O)CC2CC2)cc(C)n1 (single isomer, unassigned) [Compound 133] . Reported EC50: 115

Record Cc1cc(-c2sc(N3C[C@@H](C)O[C@@H](C)C3)nc2CNC(=O)C2CCC2)cc(C)n1 . Reported EC50: 67.6

Record Cc1cc(-c2sc(N3C[C@@H](C)O[C@@H](C)C3)nc2CNC(=O)c2nn(C)cc2C)cc(C)n1 . Reported EC50: 2630

Record Cc1cc(-c2sc(N3C[C@@H](C)O[C@@H](C)C3)nc2CNC(=O)c2ccccc2)cc(C)n1 . Reported EC50: 525

Record Cc1cc(-c2sc(N3C[C@@H](C)O[C@@H](C)C3)nc2CNC(=O)CCC(F)(F)F)cc(C)n1 . Reported EC50: 51.3

[I] Cc1cc(-c2sc(N3C[C@@H](C)O[C@@H](C)C3)nc2CNC(=O)c2cc(C3CC3)on2)cc(C)n1
[II] Cc1cc(-c2sc(N3CCOC[C@@H]3C)nc2CNC(=O)c2cc(C)on2)cc(C)n1
Task: Looking only at measured EC50, which entry is lower, I or II ? Output the label that corresponds to your choice.
Output: I

###

subject of test: human alpha 7-wt nAChR (Homo sapiens, UniProt P36544)
Construct: expressed in transfected cells
assay details: Ca2+ flux imaging (FDSS) (Protocol B)
Assay type: cell-based
run parameters: potentiation of 100 μM choline; compounds 0.01 μM to 30 μM; read-out: a7-PAM-G_[33]_pEC50 pEC50 (converted)
assay readout: EC50 (nM)

Record Cc1cc(-c2sc(N3C[C@@H](C)O[C@@H](C)C3)nc2CNC(=O)C(C)C)cc(C2CC2)n1 [Compound 108] . Reported EC50: 72.4

Record Cc1cc(-c2sc(N3C[C@@H](C)O[C@@H](C)C3)nc2CNC(=O)c2cc(C(C)C)on2)cc(C)n1 [Compound 135] . Reported EC50: 537

Record Cc1cc(-c2sc(N3CC4CCC(C3)O4)nc2CNC(=O)c2cc(C)on2)cc(C)n1 [Compound 210] . Reported EC50: 3980

Record Cc1cc(-c2sc(N3C[C@@H](C)O[C@@H](C)C3)nc2CNC(=O)c2ccc3c(c2)OC(F)(F)O3)cc(C)n1 [Compound 45] . Reported EC50: 355

Record Cc1cc(-c2sc(N3CCOC(C)C3)nc2CNC(=O)c2ccc(F)cc2C)cc(C)n1 (single isomer, unassigned) [Compound 77] . Reported EC50: 107

Record Cc1cc(-c2sc(N3C[C@@H](C)O[C@@H](C)C3)nc2CNC(=O)C2CC2)cc(C2CC2)n1 [Compound 109] . Reported EC50: 224

[I] Cc1cc(-c2sc(N3CCOC(C)(C)C3)nc2CNC(=O)CC2CC2)cc(C)n1 [Compound 156]
[II] Cc1cc(-c2sc(N3CC(C)OC(C)C3)nc2CNC(=O)C2CCC2)cc(C)n1 (racemic) [Compound 57]
Task: Endpoint returns whichever of I and II has the numerically higher EC50. Output the label that corresponds to your choice.
Output: I

[a] Cc1cc(-c2sc(N3C[C@@H](C)O[C@@H](C)C3)nc2CNC(=O)c2noc3ccccc23)cc(C)n1 [Compound 130]
[b] Cc1cc(-c2sc(N3CCOC[C@@H]3C)nc2CNC(=O)CC2CC2)cc(C)n1 [Compound 187]
[c] Cc1cc(-c2sc(N3C[C@@H](C)O[C@@H](C)C3)nc2CNC(=O)c2ccc(C(F)(F)F)nc2C)cc(C)n1 [Compound 165]
Task: Put the items in sequence by EC50, from largest down. Put the labels in the requested order and list them out.
Output: b, a, c

###

subject of test: human alpha 7-wt nAChR (Homo sapiens, UniProt P36544)
Construct: expressed in transfected cells
assay details: Ca2+ flux imaging (FDSS) (Protocol B)
Type: cell-based
run parameters: potentiation of 100 μM choline; compounds 0.01 μM to 30 μM; read-out: a7-PAM-G_[33]_pEC50 pEC50 (converted)
Protocol: Ca^2+ Flux Imaging (FDSS) (Protocol B) […] PAM activity was detected in real time by applying the compounds to be tested to the loaded cells along with an alpha 7 nicotinic receptor agonist during constant monitoring of cellular fluorescence in a FDSS. […] A control response to choline was calculated on each plate from the difference in peak in fluorescence in wells receiving either choline or assay buffer alone. […]
assay readout: EC50 (nM)

Record CC(C)C(=O)NCc1nc(N2C[C@@H](C)O[C@@H](C)C2)sc1-c1ccnc(C(F)(F)F)c1 . Reported EC50: 245

Record Cc1cc(-c2sc(N3C[C@@H](C)O[C@@H](C)C3)nc2CNC(=O)CCCC(F)(F)F)cc(C)n1 . Reported EC50: 148

Record Cc1cc(-c2sc(N3CC(C)OC(C(F)(F)F)C3)nc2CNC(=O)CC2CC2)cc(C)n1 (racemic) [Compound 202] . Reported EC50: 21.4

[P] Cc1cc(-c2sc(N3C[C@@H](C)O[C@@H](C)C3)nc2CNC(=O)C2CCC2)c(C)cn1
[Q] Cc1cc(-c2sc(N3C[C@@H](C)O[C@@H](C)C3)nc2CNC(=O)c2ocnc2C)cc(C)n1
[R] Cc1ccc(-c2sc(N3C[C@@H](C)O[C@@H](C)C3)nc2CNC(=O)c2cccc(F)c2)cn1
Task: Form: Sort by [EC50] Order [ ascending ] Put the labels in the requested order and list them out.
Output: R, P, Q

###

subject of test: human alpha 7-wt nAChR (Homo sapiens, UniProt P36544)
Construct: expressed in transfected cells
assay details: Ca2+ flux imaging (FDSS) (Protocol B)
Format: cell-based
run parameters: potentiation of 100 μM choline; compounds 0.01 μM to 30 μM; read-out: a7-PAM-G_[33]_pEC50 pEC50 (converted)
assay readout: EC50 (nM)

Record Cc1cc(-c2sc(N3C[C@@H](C)O[C@@H](C)C3)nc2CNC(=O)CC2CC2)cc(C2CC2)n1 . Reported EC50: 61.7

Record Cc1cc(-c2sc(N3CCOC(C)C3)nc2CNC(=O)c2cc(C)on2)cc(C)n1 (single isomer, unassigned) [Compound 74] . Reported EC50: 2000

Record Cc1cc(-c2sc(N3C[C@@H](C)O[C@@H](C)C3)nc2CNC(=O)C2C(C)(C)C2(C)C)cc(C)n1 . Reported EC50: 60.3

Record Cc1cc(-c2sc(N3C[C@@H](C)O[C@@H](C)C3)nc2CNC(=O)c2cc(C)nn2C(C)(C)C)cc(C)n1 . Reported EC50: 912

[a] Cc1cc(-c2sc(N3C[C@@H](C)O[C@@H](C)C3)nc2CNC(=O)c2cc(C)sc2C)cc(C)n1
[b] Cc1cc(-c2sc(N3CCOC[C@@H]3C)nc2CNC(=O)c2ccc(F)cc2C)cc(C)n1
[c] Cc1cc(F)ccc1C(=O)NCc1nc(N2CCOCC2)sc1-c1ccncc1
Task: Put the items in sequence by EC50, from largest down. Put the labels in the requested order and list them out.
Output: c, a, b
(c: 2750 nM, a: 813 nM, b: 562 nM)

All values here come from patent US8637510B2.
